- protocol_description: Octanol-water partition coefficient, logD of the compound at pH 7.4
- Type: physicochemical
readout_type: logD
Numbers only.

Illustrative cases are given below, each with its answer.
[[record]]
smiles_text = "COC(=O)C1=C(CN2CCN3C(=O)N(CC(C)(C)C(=O)O)C[C@@H]3C2)NC(c2nccs2)=N[C@H]1c1cccc(F)c1C"
readout_value = 1.26

[[record]]
smiles_text = "COC(=O)C1=C(CN2CCN3C(=O)N(CC(C)(C)C(=O)O)C[C@@H]3C2)NC(c2nccs2)=N[C@H]1c1ccc(F)cc1Cl"
readout_value = 1.18

[[record]]
smiles_text = "CCOC(=O)C1=C(CN2CCN3C(=O)N(CC(C)(C)C(=O)O)C[C@@H]3C2)NC(c2nccs2)=N[C@H]1c1cccc(F)c1Cl"
readout_value = 1.69


Give logD for each of the items listed below.
1. CCOC(=O)C1=C(CN2CCN3C(=O)N(CC(C)(C)C(=O)O)C[C@@H]3C2)NC(c2nccs2)=N[C@H]1c1ccc(F)cc1Cl
2. COC(=O)C1=C(CN2CCN3C(=O)N(CC(C)(C)C(=O)O)C[C@@H]3C2)NC(c2nccs2)=N[C@H]1c1cccc(F)c1Cl
3. CCOC(=O)C1=C(CN2CCN3C(=O)N(CC(C)(C)C(=O)O)C[C@@H]3C2)NC(c2nccs2)=N[C@H]1c1ccc(F)c(F)c1C

(A)
1.67
1.21
2

The following compounds each have a reported value; give each one's logD.
1. CCOC(=O)C1=C(CN2CCN3C(=O)N(CC(C)(C)C(=O)O)C[C@@H]3C2)NC(c2nccs2)=N[C@H]1c1cccc(F)c1C
2. COC(=O)C1=C(CN2CCN3C(=O)N(CC(C)(C)C(=O)O)C[C@@H]3C2)NC(c2nccs2)=N[C@H]1c1ccc(F)c(F)c1C

(A)
1. 1.75
2. 1.51

====

- protocol_description: Clearance in human liver microsomes at 1 uM measured upto 30 mins in presence of NADPH by LC-MS/MS analysis
- Assay type: ADME, Microsome
So I've got a bunch of compounds here, and I need their CLhep predicted at 1 µM values.
Give bare numbers, in mL/min/kg.

Example entries begin here.
[[record]]
compound = "CCOC(=O)C1=C(CN2CCN3C(=O)N(c4ccccc4C(=O)O)C[C@@H]3C2)NC(c2nccs2)=N[C@H]1c1ccc(F)cc1Cl (single isomer, unassigned)"
readout_type = "CLhep predicted at 1 µM"
readout_value = 4.4

[[record]]
compound = "COC(=O)C1=C(CN2CCN3C(=O)N(CC4(C(=O)O)CC4)C[C@@H]3C2)NC(c2nccs2)=N[C@H]1c1ccc(F)cc1Cl"
readout_type = "CLhep predicted at 1 µM"
readout_value = 0.3

[[record]]
compound = "CCOC(=O)C1=C(CN2CCN3C(=O)N(CC(C)(C)C(=O)O)C[C@@H]3C2)NC(c2nccs2)=N[C@H]1c1cccc(F)c1Cl"
readout_type = "CLhep predicted at 1 µM"
readout_value = 0.4

[[record]]
compound = "CCOC(=O)C1=C(CN2C[C@H]3CN(C(C)(C)C)C(=O)N3C[C@@H]2C(=O)O)NC(c2nccs2)=N[C@H]1c1ccc(F)cc1Cl"
readout_type = "CLhep predicted at 1 µM"
readout_value = 5

[[record]]
compound = "COC(=O)C1=C(CN2CCN3C(=O)N(c4cccc(C(=O)O)c4)C[C@@H]3C2)NC(c2nccs2)=N[C@H]1c1ccc(F)cc1Cl (single isomer, unassigned)"
readout_type = "CLhep predicted at 1 µM"
readout_value = 0.3


Provide CLhep predicted at 1 µM for all items below, preserving their order.
1. COC(=O)C1=C(CN2CCN3C(=O)N(C(C)(C)CC(=O)O)C[C@@H]3C2)NC(c2nccs2)=N[C@H]1c1ccc(F)cc1Cl
2. CCOC(=O)C1=C(CN2C[C@H]3CN(C)C(=O)N3C[C@@H]2C(=O)O)NC(c2nccs2)=N[C@H]1c1cccc(F)c1Cl
3. COC(=O)C1=C(CN2CCN3C(=O)N(c4ccc(C(=O)O)cc4)C[C@@H]3C2)NC(c2nccs2)=N[C@H]1c1ccc(F)cc1Cl (single isomer, unassigned)
4. COC(=O)C1=C(CN2CCN3C(=O)N(CC(C)(C)C(=O)O)C[C@@H]3C2)NC(c2nccs2)=N[C@H]1c1ccc(F)cc1Cl
5. COC(=O)C1=C(CN2CCN3C(=O)N([C@H]4C[C@@H](C(=O)O)C4)C[C@@H]3C2)NC(c2nccs2)=N[C@H]1c1ccc(F)cc1Cl
6. CCOC(=O)C1=C(CN2C[C@H]3CN(C4CC4)C(=O)N3C[C@H]2C(=O)O)NC(c2nccs2)=N[C@H]1c1ccc(F)cc1Cl
7. COC(=O)C1=C(CN2CCN3C(=O)N(CCC(C)(C)C(=O)O)C[C@@H]3C2)NC(c2nccs2)=N[C@H]1c1ccc(F)cc1Cl

(A)
[2.5, 5.8, 0.43, 2, 0.4, 1.7, 4.6]

# return CLhep predicted at 1 µM for each item in the list
1. COC(=O)C1=C(CN2CCN3C(=O)N(C4CCC(C(=O)O)CC4)C[C@@H]3C2)NC(c2nccs2)=N[C@H]1c1ccc(F)cc1Cl (some centres undefined)
2. CCOC(=O)C1=C(CN2CCN3C(=O)N(C(C)(C)C(=O)O)C[C@@H]3C2)NC(c2nccs2)=N[C@H]1c1ccc(F)cc1Cl

(A)
8.1
1.6
